- Test system: S. aureus Smith
- test details: In vivo activity (Mice, sc)
- condition info: Staphylococcus aureus, several determinations listed, read-out: PD50
- From the text: |In vivo Activity of BB-[…] and Related Compounds (Mice, sc) | (PD50 (mgm./kg.)
readout kind: ED50 (mg/kg)
I only need the number, in mg/kg, no unit after it.

Input line: Write down the reported ED50 (system: S. aureus Smith) of NCC1=C(CC(=O)N[C@@H]2C(=O)N3C(C(=O)O)=C(CSc4ccc5nn(CC(=O)O)c(=O)n5n4)CS[C@H]23)CC=CC1 [BB-S493]
Output line: 0.29

Input line: Write down the reported ED50 (system: S. aureus Smith) of Cn1nnnc1SCC1=C(C(=O)O)N2C(=O)[C@@H](NC(=O)[C@H](O)c3ccccc3)[C@H]2SC1 [Cefamandole, reference compound]
Output line: 0.93

Input line: Write down the reported ED50 (system: S. aureus Smith) of CNCc1ccsc1CC(=O)N[C@@H]1C(=O)N2C(C(=O)O)=C(CSc3ccc4nn(CC(=O)O)c(=O)n4n3)CS[C@H]12 [BB-S472]
Output line: 0.12

Input line: Write down the reported ED50 (system: S. aureus Smith) of NCc1ccsc1CC(=O)N[C@@H]1C(=O)N2C(C(=O)O)=C(CSc3ccc4nn(CC(=O)O)c(=O)n4n3)CS[C@H]12 [BB-S483]
Output line: 0.34

Input line: Write down the reported ED50 (system: S. aureus Smith) of NCc1ccccc1CC(=O)N[C@@H]1C(=O)N2C(C(=O)O)=C(CSc3ccc4nn(CC(=O)O)c(=O)n4n3)CS[C@H]12 [BB-S469]
Output line: 0.19

Input line: Write down the reported ED50 (system: S. aureus Smith) of CNCc1cc(O)ccc1CC(=O)N[C@@H]1C(=O)N2C(C(=O)O)=C(CSc3ccc4nn(CC(=O)O)c(=O)n4n3)CS[C@H]12 [BB-S478]
Output line: 0.08

Input line: Write down the reported ED50 (system: S. aureus Smith) of CNCc1ccccc1CC(=O)N[C@@H]1C(=O)N2C(C(=O)O)=C(CSc3ccc4nn(CC(=O)O)c(=O)n4n3)CS[C@H]12 [BB-S479]
Output line: 0.16

====

Exercise: for every item that follows, state its recorded ED50.
- Tested on: E. coli Juhl
- test details: In vivo activity (Mice, sc)
- condition info: Escherichia coli, several determinations listed, read-out: PD50
- Excerpt: |In vivo Activity of BB-[…] and Related Compounds (Mice, sc) | (PD50 (mgm./kg.)
I only need the number, in mg/kg, no unit after it.

Input line: Specify ED50 for NCc1ccsc1CC(=O)N[C@@H]1C(=O)N2C(C(=O)O)=C(CSc3ccc4nn(CC(=O)O)c(=O)n4n3)CS[C@H]12 and stop.
Output line: 0.15

Input line: Specify ED50 for NCc1ccccc1CC(=O)N[C@@H]1C(=O)N2C(C(=O)O)=C(CSc3nnnn3CC(=O)O)CS[C@H]12 [BL-S786, reference compound] and stop.
Output line: 0.43

Input line: Specify ED50 for NCc1ccccc1CC(=O)N[C@@H]1C(=O)N2C(C(=O)O)=C(CSc3ccc4nn(CC(=O)O)c(=O)n4n3)CS[C@H]12 and stop.
Output line: 0.19

Input line: Specify ED50 for CNCc1cc(O)ccc1CC(=O)N[C@@H]1C(=O)N2C(C(=O)O)=C(CSc3ccc4nn(CC(=O)O)c(=O)n4n3)CS[C@H]12 and stop.
Output line: 0.08

Input line: Specify ED50 for CNCc1ccccc1CC(=O)N[C@@H]1C(=O)N2C(C(=O)O)=C(CSc3ccc4nn(CC(=O)O)c(=O)n4n3)CS[C@H]12 and stop.
Output line: 0.19

Input line: Specify ED50 for NCC1=C(CC(=O)N[C@@H]2C(=O)N3C(C(=O)O)=C(CSc4ccc5nn(CC(=O)O)c(=O)n5n4)CS[C@H]23)CC=CC1 and stop.
Output line: 0.27

Input line: Specify ED50 for CNCc1ccsc1CC(=O)N[C@@H]1C(=O)N2C(C(=O)O)=C(CSc3ccc4nn(CC(=O)O)c(=O)n4n3)CS[C@H]12 and stop.
Output line: 0.19

====

Exercise: for every item that follows, state its recorded MIC.
- Tested on: Proteus (indole +, cephalosporinase +)
- test details: In vitro activity (geometric mean MIC, serial dilution)
- Assay type: cell-based
- condition info: 5 strains; Mueller-Hinton agar, inoculum 10^4 dilution; MIC cutoff 200 mcg./ml.; read-out: Geometric Mean MIC
I only need the number, in µg/mL, no unit after it.

Input line: Specify MIC for CNCc1ccccc1CC(=O)N[C@@H]1C(=O)N2C(C(=O)O)=C(CSc3ccc4nn(CC(=O)O)c(=O)n4n3)CS[C@H]12 and stop.
Output line: 4.8

Input line: Specify MIC for NCc1ccccc1CC(=O)N[C@@H]1C(=O)N2C(C(=O)O)=C(CSc3ccc4nn(CC(=O)O)c(=O)n4n3)CS[C@H]12 and stop.
Output line: 11

Input line: Specify MIC for Cn1nnnc1SCC1=C(C(=O)O)N2C(=O)[C@@H](NC(=O)[C@H](O)c3ccccc3)[C@H]2SC1 [Cefamandole, reference compound] and stop.
Output line: 3.6

Input line: Specify MIC for CNCc1ccsc1CC(=O)N[C@@H]1C(=O)N2C(C(=O)O)=C(CSc3ccc4nn(CC(=O)O)c(=O)n4n3)CS[C@H]12 and stop.
Output line: 8.3

Input line: Specify MIC for NCc1ccccc1CC(=O)N[C@@H]1C(=O)N2C(C(=O)O)=C(CSc3nnnn3CC(=O)O)CS[C@H]12 [BL-S786, reference compound] and stop.
Output line: 29

Input line: Specify MIC for NCc1ccsc1CC(=O)N[C@@H]1C(=O)N2C(C(=O)O)=C(CSc3ccc4nn(CC(=O)O)c(=O)n4n3)CS[C@H]12 and stop.
Output line: 17

====

- System: Klebsiella sp.
- test details: In vitro activity (geometric mean MIC, serial dilution)
- Type: cell-based
- condition info: 12 strains, Mueller-Hinton agar, inoculum 10^4 dilution, MIC cutoff 200 mcg./ml., read-out: Geometric Mean MIC
readout kind: MIC (µg/mL)
I only need the number, in µg/mL, no unit after it.

Input line: Specify MIC for NCc1ccsc1CC(=O)N[C@@H]1C(=O)N2C(C(=O)O)=C(CSc3ccc4nn(CC(=O)O)c(=O)n4n3)CS[C@H]12 [BB-S483] and stop.
Output line: 1.1

Input line: Specify MIC for Cn1nnnc1SCC1=C(C(=O)O)N2C(=O)[C@@H](NC(=O)[C@H](O)c3ccccc3)[C@H]2SC1 [Cefamandole, reference compound] and stop.
Output line: 2.4

Input line: Specify MIC for CNCc1cc(O)ccc1CC(=O)N[C@@H]1C(=O)N2C(C(=O)O)=C(CSc3ccc4nn(CC(=O)O)c(=O)n4n3)CS[C@H]12 [BB-S478] and stop.
Output line: 0.6

Input line: Specify MIC for NCc1ccccc1CC(=O)N[C@@H]1C(=O)N2C(C(=O)O)=C(CSc3nnnn3CC(=O)O)CS[C@H]12 [BL-S786, reference compound] and stop.
Output line: 0.8

Input line: Specify MIC for CNCc1ccccc1CC(=O)N[C@@H]1C(=O)N2C(C(=O)O)=C(CSc3ccc4nn(CC(=O)O)c(=O)n4n3)CS[C@H]12 [BB-S479] and stop.
Output line: 0.6

Input line: Specify MIC for CNCc1ccsc1CC(=O)N[C@@H]1C(=O)N2C(C(=O)O)=C(CSc3ccc4nn(CC(=O)O)c(=O)n4n3)CS[C@H]12 [BB-S472] and stop.
Output line: 0.8

====

Exercise: for every item that follows, state its recorded MIC.
- Test system: Enterobacter (sensitive)
- test details: In vitro activity (geometric mean MIC, serial dilution)
- Type: cell-based
- condition info: 3 strains, Mueller-Hinton agar, inoculum 10^4 dilution, MIC cutoff 200 mcg./ml., read-out: Geometric Mean MIC
I only need the number, in µg/mL, no unit after it.

Input line: Specify MIC for CNCc1ccsc1CC(=O)N[C@@H]1C(=O)N2C(C(=O)O)=C(CSc3ccc4nn(CC(=O)O)c(=O)n4n3)CS[C@H]12 [BB-S472] and stop.
Output line: 1.3

Input line: Specify MIC for NCc1ccsc1CC(=O)N[C@@H]1C(=O)N2C(C(=O)O)=C(CSc3ccc4nn(CC(=O)O)c(=O)n4n3)CS[C@H]12 [BB-S483] and stop.
Output line: 1.3

Input line: Specify MIC for CNCc1cc(O)ccc1CC(=O)N[C@@H]1C(=O)N2C(C(=O)O)=C(CSc3ccc4nn(CC(=O)O)c(=O)n4n3)CS[C@H]12 [BB-S478] and stop.
Output line: 0.8

Input line: Specify MIC for NCc1ccccc1CC(=O)N[C@@H]1C(=O)N2C(C(=O)O)=C(CSc3nnnn3CC(=O)O)CS[C@H]12 [BL-S786, reference compound] and stop.
Output line: 1.3

Input line: Specify MIC for Cn1nnnc1SCC1=C(C(=O)O)N2C(=O)[C@@H](NC(=O)[C@H](O)c3ccccc3)[C@H]2SC1 [Cefamandole, reference compound] and stop.
Output line: 1

Input line: Specify MIC for NCc1ccccc1CC(=O)N[C@@H]1C(=O)N2C(C(=O)O)=C(CSc3ccc4nn(CC(=O)O)c(=O)n4n3)CS[C@H]12 [BB-S469] and stop.
Output line: 1
